# TEST SYSTEM: DRB1*0901 (Homo sapiens, UniProt P01903+P01911, A100R/A103E/D57H/D86V/F55Y/F60I/F76Y/I96F/K127E/L162R/M171V/P40D/Q125H/Q99R/R33Q/R42F/S133A/S66N/T210M/V115G/W38K/Y107V/Y59G/Y89S)
# ASSAY COMMENT: biochemical
# Assay type: binding
pIC50: −log10 of the molar value.
Let's look at some compounds and their measured pIC50.

COMPOUND	pIC50
CC[C@H](C)[C@H](NC(=O)[C@H](Cc1c[nH]c2ccccc12)NC(=O)[C@H](CCC(=O)O)NC(=O)[C@@H]1CCCN1)C(=O)N[C@@H](CCC(N)=O)C(=O)N[C@@H](CCCNC(=N)N)C(=O)N[C@@H](CCC(N)=O)C(=O)N[C@H](C(=O)N[C@H](C(=O)N[C@@H](CC(C)C)C(=O)N[C@@H](CCC(N)=O)C(=O)N[C@@H](Cc1c[nH]cn1)C(=O)N[C@@H](CO)C(=O)N[C@@H](Cc1ccccc1)C(=O)N[C@@H](CC(N)=O)C(=O)O)C(C)C)[C@@H](C)O [Peptide 89.0011]	5.21
CSCC[C@H](NC(=O)[C@H](Cc1ccc(O)cc1)NC(=O)[C@H](Cc1ccc(O)cc1)NC(=O)[C@@H](NC(=O)[C@@H](N)CO)C(C)C)C(=O)N[C@H](C(=O)N[C@@H](CC(=O)O)C(=O)N[C@@H](C)C(=O)NCC(=O)N[C@H](C(=O)N[C@@H](Cc1c[nH]c2ccccc12)C(=O)N[C@@H](CC(=O)O)C(=O)N[C@@H](CCCCN)C(=O)N[C@H](C(=O)N[C@@H](C)C(=O)O)[C@@H](C)O)[C@@H](C)O)[C@@H](C)O [Peptide 90.0182]	5.80
